# metabolised at 0.5 h, 5 µM annotations
test: Metabolic stability in rat hepatic microsomes assessed as compound turnover at 5 uM in absence of NADPH after 30 mins; type: ADME; conditions: liver microsomes, read-out: Activity

Take a look at these entries with their results.
{"MOL_SMILES": "Cc1ccc(C(=O)NC2CC2)cc1-c1ccc2c(c1)NC(=O)[C@]21CC[C@H](O)CC1", "metabolised at 0.5 h, 5 µM": "7%"}
{"MOL_SMILES": "Cc1c(F)cc(C(=O)NC2CC2)cc1-c1ccc2c(c1)NC(=O)C21CCN(S(C)(=O)=O)CC1", "metabolised at 0.5 h, 5 µM": "< 5%"}
{"MOL_SMILES": "Cc1ccc(C(=O)NC2CC2)cc1-c1ccc2c(c1)NC(=O)C21CCSCC1", "metabolised at 0.5 h, 5 µM": "< 5%"}
{"MOL_SMILES": "Cc1ccc(C(=O)NC2CC2)cc1-c1cnc2c(c1)NC(=O)C21CCOCC1", "metabolised at 0.5 h, 5 µM": "5%"}
{"MOL_SMILES": "Cc1ccc(C(=O)NC2CC2)cc1-c1ccc2c(c1)NC(=O)C21CCC(F)(F)CC1", "metabolised at 0.5 h, 5 µM": "< 5%"}
{"MOL_SMILES": "Cc1ccc(C(=O)Nc2ccon2)cc1-c1ccc2c(c1)NC(=O)C21CCC(F)(F)CC1", "metabolised at 0.5 h, 5 µM": "< 5%"}
{"MOL_SMILES": "Cc1ccc(C(=O)NC2CC2)cc1-c1ccc2c(c1)NC(=O)C21CCCCC1", "metabolised at 0.5 h, 5 µM": "< 5%"}
{"MOL_SMILES": "Cc1ccc(C(=O)NC2CC2)cc1-c1cnc2c(c1)NC(=O)C21CCC(F)(F)CC1", "metabolised at 0.5 h, 5 µM": "< 5%"}

Quick one: metabolised at 0.5 h, 5 µM of "Cc1ccc(C(=O)NC2CC2)cc1-c1ccc2c(c1)NC(=O)C21CCOCC1" ?
< 5%
